- targetOrTestSystem: Group 3 secretory phospholipase A2 (Homo sapiens) (UniProt Q9NZ20)
- Sequence (Q9NZ20 whole entry, looked up): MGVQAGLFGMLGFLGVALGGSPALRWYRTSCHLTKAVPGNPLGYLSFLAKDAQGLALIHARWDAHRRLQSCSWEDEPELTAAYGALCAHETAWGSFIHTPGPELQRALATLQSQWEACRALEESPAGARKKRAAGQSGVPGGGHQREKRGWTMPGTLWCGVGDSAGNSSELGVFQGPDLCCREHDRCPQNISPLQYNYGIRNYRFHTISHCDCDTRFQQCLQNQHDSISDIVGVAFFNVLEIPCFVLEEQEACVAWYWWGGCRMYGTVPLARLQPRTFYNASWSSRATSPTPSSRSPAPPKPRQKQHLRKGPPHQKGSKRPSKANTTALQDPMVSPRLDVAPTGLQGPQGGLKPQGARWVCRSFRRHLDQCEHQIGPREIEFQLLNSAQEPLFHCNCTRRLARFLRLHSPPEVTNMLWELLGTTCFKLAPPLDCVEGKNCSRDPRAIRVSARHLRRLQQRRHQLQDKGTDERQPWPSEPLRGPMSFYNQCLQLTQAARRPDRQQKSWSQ
- protocolSummary: human group III sPLA2 inhibitors, primary screen, biochemical, QFRET, BODIPY PC-A2 liposome substrate (AID 743126);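 note: 0% = median of test compound wells and 100% = no enzyme DMSO wells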
- setupConditions: QFRET BODIPY PC-A2 liposome hydrolysis, fluorescence; at 12.2 µM
Out of some 370,000 compounds screened, about 2,100 (0.57%) were called active.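 Rule for the calls: active = inhibition above mean plus 3 SD of compounds lying within the high and low control bounds (cut at about 19% in these data); inactive = the rest.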 Shown is part of a subset that was picked to be rich in actives.
Hello, when you answer, please use one of the following outcomes: class 1 (active), class 0 (inactive)

The following compounds have reported results that may help.
[
  {
    "compound": "CN(C)c1ccc(NC(=O)NC2CCCCN(Cc3ccc(Cl)cc3)C2=O)cc1 (configuration not stated)",
    "labelClass": "class 1"
  },
  {
    "compound": "O=C(NNc1cc(Cl)cc(Cl)c1)c1c(F)cccc1Cl",
    "labelClass": "class 0"
  },
  {
    "compound": "O=C(CCl)NNc1cccc(Cl)n1",
    "labelClass": "class 1"
  },
  {
    "compound": "CC(=O)N1CCCN(C2=Nc3ccccc3Sc3ccccc32)CC1",
    "labelClass": "class 0"
  },
  {
    "compound": "COc1ccc(C2CC=C(C(=O)O)C(c3ccccc3F)N2S(=O)(=O)c2ccc(C)cc2)cc1OC (configuration not stated)",
    "labelClass": "class 0"
  }
]

Challenge: // outcome(item) with item = `CC(C)(c1ccccc1)c1ccc(OCCN)cc1`
Response given: class 1

Challenge: // outcome(item) with item = O=C(NC1CCCCN(Cc2ccc(Cl)cc2)C1=O)c1ccc(Br)cc1 (configuration not stated)
Response given: class 0

----------
- targetOrTestSystem: Group 3 secretory phospholipase A2 (Homo sapiens)
- protocolSummary: human group III sPLA2 inhibitors, primary screen, biochemical, QFRET, BODIPY PC-A2 liposome substrate (AID 743126);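 note: 0% = median of test compound wells and 100% = no enzyme DMSO wells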
- setupConditions: QFRET BODIPY PC-A2 liposome hydrolysis, fluorescence; at 12.2 µM
Screen size: about 370,000 compounds; about 2,100 (0.57%) were called active.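 How the source made its calls: active means inhibition above mean plus 3 SD of compounds lying within the high and low control bounds (cut at about 19% in these data); inactive means the rest.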 The sample holds actives, similar compounds and a random draw of the others, so the mix is not that of the screen.
Hello, when you answer, please use one of the following outcomes: 1.0 for active, 0.0 for inactive

The following molecules have reported results that may help.
[
  {
    "molecule": "Cc1cccc(-n2cnc(C(=O)NNC(=S)Nc3ccccc3)c2)n1",
    "labelClass": 1.0
  },
  {
    "molecule": "Cc1cccc(-n2cnc(C(=O)Nc3cccnc3)c2)n1",
    "labelClass": 0.0
  },
  {
    "molecule": "CC(C)(C)NC(=O)C(c1cccnc1)N(C(=O)c1cnco1)c1ccc(C(C)(C)C)cc1 (stereo unspecified)",
    "labelClass": 0.0
  },
  {
    "molecule": "CC(=O)Nc1nc2ncccn2c1-c1ccc(C(F)(F)F)cc1",
    "labelClass": 0.0
  },
  {
    "molecule": "O=C(NCCOc1ccccc1)c1ccccc1F",
    "labelClass": 0.0
  }
]

Challenge: // outcome(item) with item = `Cc1nn(CCOc2ccccc2)c(=O)n1-c1ccccc1F`
Response given: 0.0

----------
- targetOrTestSystem: Group 3 secretory phospholipase A2 (Homo sapiens) (UniProt Q9NZ20)
- protocolSummary: human group III sPLA2 inhibitors, primary screen, biochemical, QFRET, BODIPY PC-A2 liposome substrate (AID 743126);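 note: 0% = median of test compound wells and 100% = no enzyme DMSO wells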
- setupConditions: QFRET BODIPY PC-A2 liposome hydrolysis, fluorescence; at 12.2 µM; stronger effect = higher value
Out of some 370,000 compounds screened, about 2,100 (0.57%) were called active. This is one part of a sample in which actives are shown more often than they occur.
reportedMetric: inhibition (%)
Please state the figure in %; there is no need to write the unit.

// known answers, use as guide
[
  {
    "compound": "Cc1ccc2c(c1)N(CC(=O)N1CCCc3ccccc31)C(=O)C(C)O2 (configuration not stated)",
    "targetOrTestSystem": "Group 3 secretory phospholipase A2 (Homo sapiens) (UniProt Q9NZ20)",
    "valueReported": 0.55
  },
  {
    "compound": "CCN(CC)C(=O)CSc1nc2ccccc2n1CC(=O)N1CCN(c2ccccc2OC)CC1",
    "targetOrTestSystem": "Group 3 secretory phospholipase A2 (Homo sapiens) (UniProt Q9NZ20)",
    "valueReported": 0.24
  },
  {
    "compound": "O=C(NC1CCC1)c1ccc(C#CC2CC2)cn1",
    "targetOrTestSystem": "Group 3 secretory phospholipase A2 (Homo sapiens) (UniProt Q9NZ20)",
    "valueReported": 8.79
  },
  {
    "compound": "COC(=O)C1CN(CC(C)C)CCS(=O)(=O)N1Cc1ccc(F)cc1 (configuration not stated)",
    "targetOrTestSystem": "Group 3 secretory phospholipase A2 (Homo sapiens) (UniProt Q9NZ20)",
    "valueReported": 5.81
  },
  {
    "compound": "CCc1ccc(NC2Nc3cc(C)nn3S2)cc1 (configuration not stated)",
    "targetOrTestSystem": "Group 3 secretory phospholipase A2 (Homo sapiens) (UniProt Q9NZ20)",
    "valueReported": 23.9
  }
]

Challenge: Lab note: Group 3 secretory phospholipase A2 (Homo sapiens) (UniProt Q9NZ20) assay, enter inhibition for `CC(C)(C)c1cc2cccnc2n1Cc1ccccc1` here
Response given: 8.03

Challenge: Lab note: Group 3 secretory phospholipase A2 (Homo sapiens) (UniProt Q9NZ20) assay, enter inhibition for COC(=O)C1CN(Cc2cn(Cc3ccc(F)cc3)nn2)CCS(=O)(=O)N1Cc1ccc(Cl)cc1 (configuration not stated) here
Response given: -11.8

Challenge: Lab note: Group 3 secretory phospholipase A2 (Homo sapiens) (UniProt Q9NZ20) assay, enter inhibition for `CCCCNC(=O)C[C@@H]1C(=O)N(CCc2ccc(Cl)cc2)C2=CCCC[C@]21C(=O)OCC` here
Response given: -11

Challenge: Lab note: Group 3 secretory phospholipase A2 (Homo sapiens) (UniProt Q9NZ20) assay, enter inhibition for `COc1ccnc2c1c(=O)n(Cc1cccc(F)c1)c(=O)n2C` here
Response given: 0.58

Challenge: Lab note: Group 3 secretory phospholipase A2 (Homo sapiens) (UniProt Q9NZ20) assay, enter inhibition for Cc1c(C(C)c2ccccc2O)[nH]c2ccccc12 (configuration not stated) here
Response given: -10.4

Challenge: Lab note: Group 3 secretory phospholipase A2 (Homo sapiens) (UniProt Q9NZ20) assay, enter inhibition for `O=C(CSc1nnc(-c2cccs2)n1Cc1ccco1)c1ccc2c(c1)OCO2` here
Response given: -35.9

Challenge: Lab note: Group 3 secretory phospholipase A2 (Homo sapiens) (UniProt Q9NZ20) assay, enter inhibition for `Cc1sc2nc(SCC(=O)c3ccc(O)c(O)c3)n(Cc3ccco3)c(=O)c2c1C` here
Response given: 23.9

Challenge: Lab note: Group 3 secretory phospholipase A2 (Homo sapiens) (UniProt Q9NZ20) assay, enter inhibition for `Cc1ccccc1NC(=O)COC(=O)c1ccc(Sc2ncn[nH]2)c([N+](=O)[O-])c1` here
Response given: -13.9

Challenge: Lab note: Group 3 secretory phospholipase A2 (Homo sapiens) (UniProt Q9NZ20) assay, enter inhibition for `CN1C(=O)c2cc(NS(C)(=O)=O)ccc2OC[C@@H]2O[C@@H](CC(=O)NCc3ccc(-c4ccccc4)cc3)CC[C@H]21` here
Response given: -2

Challenge: Lab note: Group 3 secretory phospholipase A2 (Homo sapiens) (UniProt Q9NZ20) assay, enter inhibition for `COc1ccc(-n2c(COc3ccc(C)cc3)nnc2SCC(=O)Nc2ccc(Oc3ccccc3)cc2)cc1` here
Response given: -8.43

Challenge: Lab note: Group 3 secretory phospholipase A2 (Homo sapiens) (UniProt Q9NZ20) assay, enter inhibition for `CCn1c2ccccc2c2cc(NC(=O)CSc3nnc(-c4ccccc4)n3-c3ccc(C)cc3)ccc21` here
Response given: -1.34

Challenge: Lab note: Group 3 secretory phospholipase A2 (Homo sapiens) (UniProt Q9NZ20) assay, enter inhibition for CCOC12CC(C)(C)CC(C)(CC3=C1C(=O)CC(C)(C)C3)C2 (configuration not stated) here
Response given: 24.1
